Numbers sourced from PubChem BioAssay AID743279.

# TEST_METHOD_NOTES: qHTS for Inhibitors of Inflammasome Signaling: IL-1-beta AlphaLISA Primary Screen; also: % is scaled to controls: 0 for no effect and ±100 for the full control effect
# CONDITION_DETAILS: THP-1 LPS/ATP IL-1B secretion, 16 h; at 57.5 µM
Among all 360,000 compounds or so, about 17,000 (4.7%) were called active. Inconclusive results (about 5%) are left out. Rule as the data show it: active = activity change below about -50%; inconclusive = mostly about -30% to -49%; inactive = weaker than that. This is one part of a sample in which actives are shown more often than they occur.
Respond only with the outcome that fits, drawn from active, inactive

MOLECULE: O=[N+]([O-])c1ccc(CN2CC(N3CCC(c4ccccc4)CC3)CS2(=O)=O)cc1 (configuration not stated)
GROUP_LABEL: inactive

MOLECULE: CCOC(=O)CC(=O)CSc1nc(-c2ccccc2)cc(-c2ccc(Cl)cc2)c1C#N
GROUP_LABEL: inactive

MOLECULE: CC(=O)Nc1cccc(-c2cc(NC(C)=O)c3ncc(-c4ccccc4)n3c2)c1
GROUP_LABEL: inactive

MOLECULE: C=CCc1cc(S(=O)(=O)c2ccc(O)c(CC=C)c2)ccc1O
GROUP_LABEL: inactive

MOLECULE: C/C(N)=C(/C#N)C(=O)COC(=O)CNS(=O)(=O)c1ccc(C)cc1
GROUP_LABEL: inactive

Incoming: For COc1ccc(Cc2nnc(NC(=O)c3ccc(OC)cc3OC)s2)cc1 , what call appears in the results of this test?
Outgoing: active

Incoming: Likewise for COc1cccc(C(=O)OCC(=O)c2[nH]c(C)c(C(C)=O)c2C)c1 ?
Outgoing: inactive

Incoming: Also CC(=O)OCC(COC(C)=O)OC(C)=O , if possible.
Outgoing: inactive

Incoming: Can you handle O=C1CCNCCN1[C@H](CO)Cc1ccccc1 next?
Outgoing: inactive

Incoming: Param item: O=S(=O)(Nc1ccc2[nH]ncc2c1)c1ccccc1Cl
Outgoing: inactive

Incoming: Proceed to CCN(C(=O)CN1CCN(Cc2ccccc2)CC1)c1c(N)n(Cc2ccccc2)c(=O)[nH]c1=O
Outgoing: inactive

---

# TEST_METHOD_NOTES: qHTS for Inhibitors of Inflammasome Signaling: IL-1-beta AlphaLISA Primary Screen
# CONDITION_DETAILS: THP-1 LPS/ATP IL-1B secretion, 16 h; at 57.5 µM, stronger effect = lower value
About 17,000 (4.7%) of roughly 360,000 compounds were called active. Inconclusive results (about 5%) are left out. Many of the other results were omitted from the sample, so actives are more common in it than they were.
OBSERVATION_TYPE: activity change (%)
Write down the numeric answer in % and omit the unit.

SAMPLE_SMILES: O=C(NCc1ccccn1)[C@@H]1CCCN1C(=O)[C@@H]1CCCN1C(=O)c1ccccc1
U: %
activity change: 0
--
SAMPLE_SMILES: N#CC1(Nc2ccc3c4c(cccc24)CC3)CCCCC1
U: %
activity change: 0
--
SAMPLE_SMILES: CC(=O)Nc1ccc2c3c(ccc([N+](=O)[O-])c13)CC2
U: %
activity change: 18.1
--
SAMPLE_SMILES: O=C(COC(=O)CCc1c[nH]c2ccccc12)Nc1cccc(Cl)c1
U: %
activity change: 8.98
--
SAMPLE_SMILES: COCCN1CCN(C(=O)c2cc(COc3ccc(F)cc3Cl)on2)CC1
U: %
activity change: 22.2

Please look at the following compound next.
Incoming: Could you tell me which activity change is on file for CCc1ccccc1NC(=O)CN1CCN(C(=O)c2cc(C3CC3)nn2-c2ccccc2)CC1 ?
Outgoing: -18.2

---

# TEST_METHOD_NOTES: qHTS for Inhibitors of Inflammasome Signaling: IL-1-beta AlphaLISA Primary Screen
# CONDITION_DETAILS: THP-1 LPS/ATP IL-1B secretion, 16 h; at 57.5 µM, stronger effect = lower value
About 17,000 (4.7%) of roughly 360,000 compounds were called active. Another 5% or so got no clear call; they are omitted. Many of the other results were omitted from the sample, so actives are more common in it than they were.
OBSERVATION_TYPE: activity change (%)
Give a bare numeral; the unit % is implied.

SAMPLE_SMILES: N#C/C(=C/c1ccc(-c2ccccc2[N+](=O)[O-])o1)C(=O)NCCN1CCCCC1
activity change, %: -54.1
//
SAMPLE_SMILES: CN1CCN(CCNC(=O)Nc2ccccc2[N+](=O)[O-])CC1
activity change, %: -9.61
//
SAMPLE_SMILES: O=C(NCCCN1CCOCC1)c1ccc([N+](=O)[O-])cc1[N+](=O)[O-]
activity change, %: 47.3
//
SAMPLE_SMILES: CN(C)CCNC(=O)/C(=C/c1cccc([N+](=O)[O-])c1)NC(=O)c1ccccc1
activity change, %: -4.01

Let us examine a further case.
Incoming: Quick one: activity change of N#C/C(=C/c1ccc(N2CCOCC2)o1)C(=O)N1CCOCC1 ?
Outgoing: -6.13

---

# TEST_METHOD_NOTES: qHTS for Inhibitors of Inflammasome Signaling: IL-1-beta AlphaLISA Primary Screen
# CONDITION_DETAILS: THP-1 LPS/ATP IL-1B secretion, 16 h; at 57.5 µM, stronger effect = lower value
# Source text: Inflammasomes are a set of intracellular multi-protein complexes that enable autocatalytic activation of inflammatory caspases and drive the innate immune response to counter harmful agents. […] A qHTS assay, based on AlphaLISA technology, was developed to screen the Molecular Libraries Small Molecule Repository (MLSMR) to look for novel inflammasome inhibitors. The assay detects IL-1B using AlphaLISA anti-IL-1B acceptor and donor beads. […]
The campaign covered roughly 360,000 compounds. About 17,000 (4.7%) were called active. Roughly 5% stayed inconclusive and do not appear here. What follows is part of a selection rich in actives, with near analogues and random picks from the rest.
OBSERVATION_TYPE: activity change (%)
Numbers only; they are read as %.

COMPOUND: CCN(CC)C(=O)CSc1ncnc2c1cnn2-c1ccccc1
OBSERVATION_TYPE: activity change
OBSERVED_MEASUREMENT: -11.6
//
COMPOUND: Cn1c2c(c(=O)n(C)c1=O)C(c1cccc(F)c1)C(C#N)=C(N)O2 (stereo unspecified)
OBSERVATION_TYPE: activity change
OBSERVED_MEASUREMENT: 5.24
//
COMPOUND: Cc1c(NC(=O)C(=O)N/N=C/c2cccs2)c(=O)n(-c2ccccc2)n1C
OBSERVATION_TYPE: activity change
OBSERVED_MEASUREMENT: -21.9
//
COMPOUND: CC(C)Oc1ccc(Oc2ccc(C(F)(F)F)cn2)cc1
OBSERVATION_TYPE: activity change
OBSERVED_MEASUREMENT: -23.6
//
COMPOUND: Cc1nn(Cc2ccc(Cl)cc2)c(Cl)c1/C=N/NC(=O)c1cccnc1
OBSERVATION_TYPE: activity change
OBSERVED_MEASUREMENT: -70.6
//
COMPOUND: Cc1nn(Cc2ccc(Cl)cc2)c(Cl)c1/C=N/NC(=O)CNc1ccccc1F
OBSERVATION_TYPE: activity change
OBSERVED_MEASUREMENT: -13.7

Incoming: # get_value(readout='activity change', item= Cc1onc(-c2c(F)cccc2Cl)c1C(=O)Nc1cccc(S(=O)(=O)N2CCCCC2)c1 )
Outgoing: -19.9

Incoming: Try this compound next: CCn1nc(C)c(/C=N/NC(=O)Cc2ccc(Cl)cc2)c1C
Outgoing: 14.8

Incoming: Same read-out for CC(NC(=O)COC(=O)Cn1cc(C(F)(F)F)ccc1=O)c1ccccc1 (stereo unspecified) ?
Outgoing: -0.662

Incoming: // same read-out, input: CCCCN1CC(C)(C)[C@H](CC(=O)Nc2ccc(Br)cc2)C1=O
Outgoing: -25.6

Incoming: What about Cc1ccc(C(=O)OCC(=O)NC2CCCCCCC2)cc1C ?
Outgoing: 8.07

---

# TEST_METHOD_NOTES: qHTS for Inhibitors of Inflammasome Signaling: IL-1-beta AlphaLISA Primary Screen
# CONDITION_DETAILS: THP-1 LPS/ATP IL-1B secretion, 16 h; at 57.5 µM
Among all 360,000 compounds or so, about 17,000 (4.7%) were called active. Not shown: some 5% with an inconclusive outcome. Rule as the data show it: active = activity change below about -50%; inconclusive = mostly about -30% to -49%; inactive = weaker than that. For the sample, actives were picked, then their nearest neighbours and some compounds at random.
Please answer using one outcome listed in active, inactive

Would you please look over these solved cases?
MOLECULE: Cc1ccnc(-n2sc3ccccc3c2=O)n1
GROUP_LABEL: active

MOLECULE: COCCCNC(=O)c1cccc2c(-c3ccc(O)c(OC)c3)coc12
GROUP_LABEL: inactive

MOLECULE: CCn1cc(CN2CCC(C(=O)Nc3cccc(-c4cccc(Cl)c4)c3)CC2)c(C)n1
GROUP_LABEL: active

MOLECULE: O=C(COC(=O)/C=C/c1ccc(Br)o1)Nc1cccc(S(=O)(=O)N2CCOCC2)c1
GROUP_LABEL: inactive

MOLECULE: Cc1ccc(S(=O)(=O)/N=C2\C=C(NS(=O)(=O)c3ccc(C)cc3)C(=O)c3ccccc32)cc1
GROUP_LABEL: inactive

MOLECULE: COc1ccc(S(=O)(=O)/N=C2\C=C(NS(=O)(=O)c3ccccc3)C(=O)c3ccccc32)cc1
GROUP_LABEL: inactive

Incoming: Any idea what this test logged for CC(C)(C)c1cc(P(=O)(c2ccccc2)c2ccccc2)ccc1O ?
Outgoing: active
